Catalogue of compounds with associated inhibition in vivo at 150 µmol/kg
Tested on: Rattus norvegicus
Experiment description: Anti-inflammatory activity in Sprague-Dawley rat model of carrageenan-induced paw edema assessed as inhibition of paw edema volume at 150 umol/kg, po dosed 1 hr before carrageenan challenge and measured 3 hrs post carrageenan challenge
Assay type: functional
Supply the numeric figure in %, leaving out any unit text.

Q. Recall the recorded inhibition in vivo at 150 µmol/kg for `Cc1nn(-c2ccc(C(F)(F)F)cc2)c2c1c(=O)oc1ccc(Cl)cc12` with Rattus norvegicus and state it.
A. 36.1

Next:
Q. Kindly state the measured inhibition in vivo at 150 µmol/kg obtained for `Cc1nn(-c2ccc(C(F)(F)F)cc2)c2c1c(=O)oc1ccccc12` with Rattus norvegicus.
A. 40.4

Q. // lookup inhibition in vivo at 150 µmol/kg | system=Rattus norvegicus | key= `Cc1ccc(-c2cc(C(F)(F)F)nn2-c2ccc(S(N)(=O)=O)cc2)cc1`
A. 38.8

Q. Lab note: need inhibition in vivo at 150 µmol/kg with Rattus norvegicus for entry `Cc1nn(-c2ccc(Cl)cc2)c2c1c(=O)oc1ccccc12` , please look it up.
A. 35.2
